Target under test: human PAH with the R408W mutation (Homo sapiens, UniProt P00439, R408W)
Construct: expressed in transfected cells
Sequence (P00439 whole entry R408W): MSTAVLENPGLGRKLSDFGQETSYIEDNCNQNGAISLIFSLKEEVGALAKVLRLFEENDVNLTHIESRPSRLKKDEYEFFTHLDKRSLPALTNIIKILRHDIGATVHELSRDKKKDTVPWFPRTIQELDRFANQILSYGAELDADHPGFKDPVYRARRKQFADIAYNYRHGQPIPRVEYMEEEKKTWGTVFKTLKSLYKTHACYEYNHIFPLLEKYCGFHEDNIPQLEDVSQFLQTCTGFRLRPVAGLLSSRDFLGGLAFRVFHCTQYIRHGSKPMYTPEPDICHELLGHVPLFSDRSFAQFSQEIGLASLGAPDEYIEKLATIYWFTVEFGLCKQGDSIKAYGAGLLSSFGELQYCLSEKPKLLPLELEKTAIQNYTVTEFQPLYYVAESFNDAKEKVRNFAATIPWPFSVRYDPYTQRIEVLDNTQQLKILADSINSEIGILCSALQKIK
Procedure text: Cell Based Phenylalanine Flux Assay;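 also: after compound treatment, cells received sepiapterin plus isotope-labelled Phenylalanine for 4 hours, then labelled Tyrosine in the medium was quantified, 10-point 2-fold dilution series run in duplicate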
Stated conditions: A375 cells expressing human PAH R408W; 24 hrs compound incubation; 13C-Tyrosine by LC-MS; average where tested multiple times; read-out: AC50
Measurement kind: AC50

CC(F)(F)c1nnc(N2CCc3[nH]cnc3[C@H]2c2cc3c(C(F)(F)F)cccn3n2)o1 ... < 500 nM
Fc1cccc(-c2nnc(N3CCc4[nH]cnc4[C@H]3c3cc4c(C(F)(F)F)cccn4n3)o2)n1 ... 500 to 1000 nM
O=C(c1nnc(-c2ccccn2)s1)N1CCc2[nH]cnc2[C@@H]1c1cc2ccccn2n1 ... > 5000 nM
Fc1ccc(-c2nnc(N3CCc4[nH]cnc4[C@H]3c3cc4c(Cl)cccn4n3)o2)cc1 ... < 500 nM
FC(F)(F)c1ccc(N2CCc3[nH]cnc3[C@H]2c2cc3c(C(F)(F)F)cccn3n2)nc1 ... < 500 nM
Cc1c(-c2nnc(C(=O)N3CCc4[nH]cnc4[C@H]3c3cc4c(C5CC5)cccn4n3)o2)cnn1C ... < 500 nM
